- system: PRMT5/MEP50 complex (Homo sapiens, UniProt O14744)
- Sequence (O14744 whole entry, the tested form may be a part): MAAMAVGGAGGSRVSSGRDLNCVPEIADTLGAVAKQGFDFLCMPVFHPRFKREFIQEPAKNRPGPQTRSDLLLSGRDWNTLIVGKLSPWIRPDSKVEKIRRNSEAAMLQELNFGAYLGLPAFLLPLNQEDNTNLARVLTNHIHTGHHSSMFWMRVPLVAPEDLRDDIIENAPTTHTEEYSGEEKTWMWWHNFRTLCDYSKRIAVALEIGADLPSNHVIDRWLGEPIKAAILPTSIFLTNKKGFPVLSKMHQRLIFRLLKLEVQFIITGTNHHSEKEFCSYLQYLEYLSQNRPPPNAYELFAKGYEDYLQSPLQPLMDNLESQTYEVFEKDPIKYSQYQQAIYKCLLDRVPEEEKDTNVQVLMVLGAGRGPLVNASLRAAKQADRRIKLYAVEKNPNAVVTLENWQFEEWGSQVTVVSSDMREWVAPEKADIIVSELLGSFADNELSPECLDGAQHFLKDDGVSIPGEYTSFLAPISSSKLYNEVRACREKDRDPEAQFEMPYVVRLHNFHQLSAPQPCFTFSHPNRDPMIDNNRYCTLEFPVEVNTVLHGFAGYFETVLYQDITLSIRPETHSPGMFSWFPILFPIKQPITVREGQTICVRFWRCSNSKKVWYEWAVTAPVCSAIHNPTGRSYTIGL
- Sequence (Q9BQA1 whole entry, further chain, the tested form may be a part): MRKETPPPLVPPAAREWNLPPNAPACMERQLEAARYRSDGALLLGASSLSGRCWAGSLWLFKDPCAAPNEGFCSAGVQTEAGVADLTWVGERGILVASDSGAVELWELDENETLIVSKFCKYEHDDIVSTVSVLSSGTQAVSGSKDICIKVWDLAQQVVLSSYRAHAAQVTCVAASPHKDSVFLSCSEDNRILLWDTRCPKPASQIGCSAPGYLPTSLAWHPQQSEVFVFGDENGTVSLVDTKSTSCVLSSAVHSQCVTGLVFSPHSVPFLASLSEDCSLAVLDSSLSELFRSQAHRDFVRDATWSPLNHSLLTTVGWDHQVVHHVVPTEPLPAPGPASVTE
- assay.text: Inhibition of human full length FLAG-tagged PRMT5/human His6-tagged MEP50 expressed in baculovirus-infected Sf9 cells assessed as reduction in tritium incorporation into peptide substrate using human Histone H4 (1 to 15 residues) and [3H]SAM as substrate preincubated with enzyme and H4 for 30 mins followed by [3H]SAM addition and measured after 120 mins by radioactive flashplate assay
# strict inequality: IC50 < 0.1 µM yields 1, everything else yields 0

# example entries with known answers
Input line: IC50 under 0.1 µM? Item: OC(COc1cccc(CNC2CCCC2)c1)CN1CCc2ccncc2C1 (centres undefined)
Output line: 0

Input line: IC50 under 0.1 µM? Item: CN(Cc1ccccc1)CC(O)COc1cccc(CNC2CCCC2)c1 (centres undefined)
Output line: 0

Input line: IC50 under 0.1 µM? Item: O=C(COc1cccc2cccnc12)NC[C@H](O)CN1CCc2ccccc2C1
Output line: 0

More entries:
Input line: IC50 under 0.1 µM? Item: O=C(NC[C@@H](O)CN1CCc2ccccc2C1)c1cccc(-c2ccccn2)c1
Output line: 1

Input line: IC50 under 0.1 µM? Item: OC(COc1cccc(CNC2CCCC2)c1)CN1Cc2ccccc2C1 (centres undefined)
Output line: 0

Input line: IC50 under 0.1 µM? Item: OC(COc1cccc(CNC2CCCC2)c1)CN1CCc2ccccc2C1 (centres undefined)
Output line: 0

Input line: IC50 under 0.1 µM? Item: O=C(NCC(O)CN1CCc2ccccc2C1)c1cccc(-c2ccccn2)c1 (racemic)
Output line: 1

Input line: IC50 under 0.1 µM? Item: COc1cc2c(cc1OC)CN(CC(O)COc1cccc(CNC3CCCC3)c1)CC2 (centres undefined)
Output line: 0

* * *

- system: Protein arginine N-methyltransferase 5 (Homo sapiens, UniProt O14744)
- Sequence (O14744 whole entry): as the sequence (O14744 whole entry, the tested form may be a part) above
- assay.text: Inhibition of PRMT5 in human Z138 cells assessed as reduction in symmetrical dimethylation of arginine containing substrate using SmD3 as substrate incubated for 4 days by In-cell western assay
measure: IC50 (µM)
Answers are plain numbers, in µM.

The compound O=C(COc1cccc2cccnc12)NC[C@@H](O)CN1CCc2ccccc2C1 , when measured on Protein arginine N-methyltransferase 5 (Homo sapiens, UniProt O14744), yielded IC50 of 0.016

The compound O=C(NC[C@H](O)CN1CCc2ccccc2C1)c1cccc(-c2ccccn2)c1 , when measured on Protein arginine N-methyltransferase 5 (Homo sapiens, UniProt O14744), yielded IC50 of 0.032

# batch size: 6; output IC50 per entry
1. Cn1cnc2ccc(-c3cccc(OCC(O)CN4CCc5ccccc5C4)c3)cc21 (centres undefined)
2. Cn1cnc2ccc(-c3ccnc(NCC(O)CN4CCc5ccccc5C4)c3)cc21 (centres undefined)
3. O=C(COc1cccc2cccnc12)NC[C@H](O)CN1CCc2ccccc2C1
4. O=C(COc1cccc2cccnc12)NCC(O)CN1CCc2ccccc2C1 (racemic)
5. O=C(NC[C@@H](O)CN1CCc2ccccc2C1)c1cccc(-c2ccccn2)c1
6. O=C(NCC(O)CN1CCc2ccccc2C1)c1cccc(-c2ccccn2)c1 (racemic)

Output line:
1: 0.435; 2: 0.18; 3: 0.327; 4: 0.036; 5: 0.406; 6: 0.037

The compound O=C(NC[C@H](O)CN1CCc2ccccc2C1)c1cccc(NC2CCOCC2)c1 , when measured on Protein arginine N-methyltransferase 5 (Homo sapiens, UniProt O14744), yielded IC50 of 0.013
